Recorded values, source paper PMC12040169.

For each entry below, report its viability at 28.5 h, 10 µM value.
testSummary: in vitro
runConditions: human, hela cells, % viability
Give bare numbers, in %.

Solved cases (8 shown):
CCn1nc(C2CCCC2)nc1-c1cnc2ccnn2c1C [CBK306626] ... 87.1
Cc1cc(C)c2oc(-c3cccc(NC(=O)c4cccc(Cl)c4Cl)c3C)nc2c1 [CBK264005] ... 84.2
CC(C)C(NC(=O)N1c2ccccc2NC(=O)C1C(C)C)C(=O)O (centres unmarked) [CBK286670] ... 100
Cc1ccc(S(=O)(=O)c2cccc(S(=O)(=O)N3CCCCC3)c2)cc1S(=O)(=O)N1CCCCC1 [CBK262207] ... 105
COc1ccc2[nH]c3c(c2c1)CCN(C(=O)CNCc1ccc(OC)c(OC)c1)C31CCN(CCOc2ccccc2)C1 (centres unmarked) [CBK076736T] ... 75
CC(C)NC(=O)CCNc1ncc(C(N)=O)cc1Cl [CBK306373] ... 92.9
O=C1NC2(CCN(C(=O)Cc3ccc(F)cc3)CC2)Oc2ccc(-c3ccccc3)cc21 [CBK115832] ... 93.5
CC(C)N(C(=O)Cn1c(C(F)F)cc2cccnc21)C(C)C [CBK285009] ... 100

Provide each entry's viability at 28.5 h, 10 µM from the list below.
1. O=C(c1cccnc1)N1CCN(c2ncccn2)CC1 [CBK144516]
2. COC1C(O)=CC(=O)OC1(CCc1ccco1)CCc1ccco1 (centres unmarked) [CBK001858]
3. CCCCc1ccc(-c2ccc3ccc(NC(=O)C(C)C)nc3n2)cc1 [CBK073668]
4. Cc1ccc(C(C)(C)C(=O)N2CCC(CC(=O)N(C)C)CC2)cc1 [CBK281973]
5. COc1cccc(CCOc2cncc(Cl)n2)c1 [CBK113556]
6. CCc1nn2c(O)cc(C)nc2c1-c1cccs1 [CBK283860]
7. CN(C)CCN(C)c1cncc(-c2ccc(Cl)cc2)n1 [CBK065724]
8. Cc1ccccc1NC(=O)Cn1c(=O)cnc2ccccc21 [CBK287852]

// result
1. 95.4
2. 86.7
3. 93
4. 99.8
5. 87.3
6. 90.7
7. 93
8. 100

// for each molecule in input: emit viability at 28.5 h, 10 µM
1. COC(=O)c1ccc(NC(=O)N2CCCCC2CCn2ccnc2)cc1 (centres unmarked) [CBK307195]
2. CS(=O)(=O)c1ccc(-c2cnc(N)c3ncccc23)cc1 [CBK067593]

// result
[86.8, 90.5]

Please state, for each entry, its recorded viability at 28.5 h, 10 µM.
1. COC(=O)[C@@H]1Cc2ncn(Cc3ccc(OC)cc3)c2CN1C(=O)c1ccc(C#N)cc1 [CBK288982]
2. O=C(c1ccccc1)c1ccc(OCC(O)CN2CCN(c3ccccn3)CC2)cc1 (centres unmarked) [CBK266513]

// result
95.4
98.3

---

testSummary: in vitro
runConditions: human, hela cells, % viability
Provide the reported viability at 28.5 h, 10 µM of each item.
One number for each entry, in %.

COc1ccc(-c2cnc(N)c(N[C@H](C)c3ccccc3)n2)c(OC)c1OC ... 105
Cc1cc(C)n(CC(C)C(=O)Nc2cccnc2)n1 (stereo not drawn) ... 97.5

For every item in the list below, what is its measured viability at 28.5 h, 10 µM?
1. CC(C)(C)NCCN1CCn2c1nc1ccccc12
2. Cn1cc(-c2ccccc2CN2CCCC2)c2onc(-c3ccccc3)c2c1=O [CBK036319C]
3. CC1(C)CC(NC(=O)C2CCCN(S(C)(=O)=O)C2)c2ccccc2O1 (stereo not drawn)

// result
82
115
98.2

Record viability at 28.5 h, 10 µM for all entries; do not skip any.
1. CC(=O)c1cccc(NC(=O)Nc2ccc(S(=O)(=O)Nc3cc(C)on3)cc2)c1
2. COc1ccc(-c2cnc(NS(C)(=O)=O)c(C(=O)NCc3ccco3)c2)cc1
3. CS(=O)(=O)Nc1ccc(N2CCNCC2)c2ccccc12 [CBK059355C]
4. Brc1ccc(/C=N\c2ccc3c(c2)ncn3CCn2cnc3cc(/N=C/c4ccc(Br)cc4)ccc32)cc1

// result
1: 111; 2: 94.9; 3: 79.3; 4: 83.9

---

Record form. Attribute: viability at 28.5 h, 10 µM. Fill in for each entry.
testSummary: in vitro
runConditions: human, hela cells, % viability
Give bare numbers, in %.

Provide each entry's viability at 28.5 h, 10 µM from the list below.
1. COc1ccc(C)c2sc(NC(=O)c3sc(C)nc3C)nc12
2. Cc1ccccc1NC(=O)CC(C(=O)O)N(C)C (stereo not shown)
3. CC12CCC(C(=O)O)(C/C1=N\N)C2(C)C (stereo not shown)
4. COc1ccc2cc(-c3cc(C(=O)O)c4ccccc4n3)ccc2c1
5. Cc1ccc(-c2nn(CCC#N)cc2C(=O)N2CCCC2)cc1C

// result
[74, 103, 113, 88.4, 86.8]

Please state, for each entry, its recorded viability at 28.5 h, 10 µM.
1. COc1ccc(CNC(=O)CN2CCCCC2Cn2cccn2)cc1 (stereo not shown)
2. COc1cc2nc3c4ccccc4n(CC(=O)O)c3nc2cc1OC
3. CC(C)C1(C)N=C(c2nc3ccccc3cc2C(=O)O)NC1=O (stereo not shown)
4. O=C(c1ccncc1)c1ccc(N2CCN(C3CC(=O)N(Cc4cccs4)C3=O)CC2)cc1 (stereo not shown)
5. CC1=NN(C(=O)C2CC2)C(=O)C1Cc1ccc(F)cc1 (stereo not shown)
6. N#Cc1c(NC(=O)c2cccnc2)sc2c1CCCCC2

// result
93.1
86.8
86.1
94.6
89.9
98.6

// each listed molecule needs a value for viability at 28.5 h, 10 µM
1. Cc1ccc(S(=O)(=O)CC(=O)N2CCCC3(CCN(C(=O)c4cc(F)c(F)cc4F)C3)C2)cc1 (stereo not shown)
2. CC1c2ccsc2CCN1C(=O)CC(NC(N)=O)c1cccc(Br)c1 (stereo not shown)
3. Cc1noc(C)c1C(=O)N1CCC2(CC1)CC(=O)c1ccc(OCc3ccccc3)c(C)c1O2
4. Cn1c(SCC(=O)Nc2c(F)cc(F)cc2Br)nnc1-c1cccnc1

// result
1. 99
2. 110
3. 97.4
4. 90.8

---

testSummary: in vitro
runConditions: human, hela cells, % viability
measuredProperty: viability at 28.5 h, 10 µM (%)
Give bare numbers, in %.

Below are worked cases with known answers.
CN1CCN(C2c3ccccc3Oc3ccccc32)CC1 ... 93
CC(C)N(Cc1nc(-c2ccc(Cl)cc2)no1)C(=O)COc1ccc(Br)cc1Cl ... 111
O=c1[nH]cc(S(=O)(=O)Nc2ccccc2)c(=O)[nH]1 ... 93.5

For each of the compounds below, state viability at 28.5 h, 10 µM.
1. Cc1cc(Cl)cc(Br)c1OCCN1CCN(C)CC1 [CBK269668C]
2. CCOC(=O)N1CCN(CC(O)COc2cc(C)c(Cl)c(C)c2)CC1 (stereo not shown) [CBK033833C]
3. Cc1cc(NC(=O)c2ccccc2)nc2c1c(=O)oc1ccccc12
4. CN1CCN(c2nccnc2-c2cccc(F)c2)CC1
5. O=C(O)c1ccc(-n2ccnc2)c(C#Cc2ccccc2)c1
6. CS(=O)(=O)N1CCCCCC1c1cc(-c2cccs2)on1 (stereo not shown)
7. Cc1cc(C2CCCCCN2S(=O)(=O)c2ccc3[nH]c(=O)[nH]c(=O)c3c2)on1 (stereo not shown)

// result
1: 93.9; 2: 88.9; 3: 113; 4: 89.8; 5: 89.5; 6: 85.5; 7: 93.6

---

For each of the molecules below, state its viability at 28.5 h, 10 µM.
testSummary: in vitro
runConditions: human, hela cells, % viability
One number for each entry, in %.

C#CCn1c(=O)n(C)n(C)c1=O ... 89.4
O=C1CC2(CCN(C(=O)C3CCCC3)CC2)Oc2ccc(Cl)cc21 ... 90.9
Cc1ccc(C(=O)n2nc(-c3cccnc3)nc2N)cc1 ... 97.4

Value sought for every listed molecule: viability at 28.5 h, 10 µM.
1. Cc1cc(NCc2ccc(C(C)C)cc2)c2ccccc2n1
2. Cc1ccc(Oc2c([N+](=O)[O-])ncn2C)c(Br)c1

// result
91.7
99.2

---

Assignment: determine reported viability at 28.5 h, 10 µM for the given compounds.
testSummary: in vitro
runConditions: human, hela cells, % viability
Numbers only, in %.

Illustrative cases are given below, each with its answer.
Cc1cc(NS(=O)(=O)c2ccc(F)cc2)n(C)n1 ... 108
CC(C)(C)OC(=O)Nc1cc(Cl)ccc1C(=O)O ... 103
COCC(C)NC(=O)c1cc2c(C)cc(C)cc2[nH]1 (centres unmarked) ... 91.8
CN1CCN(c2cc(C(F)(F)F)c3scc(C(=O)NCCC4=CCCCC4)c3n2)CC1 ... 110

Then there is this compound:
// query Tell me its viability at 28.5 h, 10 µM given Cc1cc(-c2ccccc2)nc(SCC(=O)Nc2nnc(C)s2)n1 as the entry.
// result 87.3
